// provenance: patent US20110318339A1

Biological target: T1, recombinant human DLL4 (Cat# 1506-D4/CF, R&D Systems) (human, UniProt Q9NR61 27-529)
T1 construct: Bought protein; also called hDLL4; rHuman DLL4
Assay: SPR (ProteOn), hDLL4 amine-coupled on chip
Procedure: In this example, the binding affinities of selected anti-DLL4 Fabs to recombinant human DLL4 (hDLL4, Cat# 1506-D4/CF, R&D Systems) were analyzed using Surface Plasmon Resonance (SPR) (Biosensor Tools, Salt Lake City, Utah). The Fabs analyzed include germline-derived antibodies and germline-modified DLL4 antibodies. Recombinant hDLL4 was immobilized on a SPR chip using amine coupling at three different surface densities. The Fabs were serially diluted 3-fold, with an initial concentration of 1 μM. […]
Give measured kon for each item. Keep answers brief.
The reply should contain only the number, in M⁻¹ s⁻¹.

Using known records, supply kon for Fab VH5-51_IGHD5-18*01>3_IGHJ4*01 G100K/G104T G24T/S28R/G35V & V3-4_IGLJ1*01 M94R/S96M (Fab, V domains shown, Fab made in E. coli: VH on CH1 with His6 and Flag tags (Plasmid A), VL on lambda CL (Plasmid E); also called H: KT TRV & L: RM; KT TRV-V3-4 RM) VH: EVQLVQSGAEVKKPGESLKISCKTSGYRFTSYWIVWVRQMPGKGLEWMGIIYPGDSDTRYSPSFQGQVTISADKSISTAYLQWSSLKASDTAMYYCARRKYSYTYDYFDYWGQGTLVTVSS VL: QTVVTQEPSFSVSPGGTVTLTCGLSSGSVSTSYYPSWYQQTPGQAPRTLIYSTNTRSSGVPDRFSGSILGNKAALTITGAQADDESDYYCVLYRGMGISYVFGTGTKVTVL
2.53e+06

Please report the measured kon for Fab VH1-46_IGHD6-6*01_IGHJ1*01 S102A/S103P/S104F/H111F I51V/N52L/S54T/G56H & L6_IGKJ1*01 S28N/S30D/S31H S52L/A55S (Fab, V domains shown, Fab made in E. coli: VH on CH1 with His6 and Flag tags (Plasmid A), VL on kappa CL (Plasmid C); also called H: APFF VLTH & L: NDH LS) VH: QVQLVQSGAEVKKPGASVKVSCKASGYTFTSYYMHWVRQAPGQGLEWMGIVLPTGHSTSYAQKFQGRVTMTRDTSTSTVYMELSSLRSEDTAVYYCAREEYAPFSAEYFQFWGQGTLVTVSS VL: EIVLTQSPATLSLSPGERATLSCRASQNVDHYLAWYQQKPGQAPRLLIYDALNRSTGIPARFSGSGSGTDFTLTISSLEPEDFAVYYCQQRSNWPPWTFGQGTKVEIKR
684000

Tell me measured kon for Fab VH1-46_IGHD6-6*01_IGHJ1*01 S102A/S103P/S104F/H111F I51V/N52L/S54T/G56H & L6_IGKJ1*01 S28N/S30D/S31H (Fab, V domains shown, Fab made in E. coli: VH on CH1 with His6 and Flag tags (Plasmid A), VL on kappa CL (Plasmid C); also called H: APFF VLTH & L: NDH) VH: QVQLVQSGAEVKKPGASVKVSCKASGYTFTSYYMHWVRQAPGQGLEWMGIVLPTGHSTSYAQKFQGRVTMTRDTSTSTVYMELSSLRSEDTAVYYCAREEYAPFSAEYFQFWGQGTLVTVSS VL: EIVLTQSPATLSLSPGERATLSCRASQNVDHYLAWYQQKPGQAPRLLIYDASNRATGIPARFSGSGSGTDFTLTISSLEPEDFAVYYCQQRSNWPPWTFGQGTKVEIKR please.
430000

Please report the measured kon for Fab VH5-51_IGHD5-18*01>3_IGHJ4*01 G100K/G104T G24T/S28R/G35V & V3-4_IGLJ1*01 V91L/S96P (Fab, V domains shown, Fab made in E. coli: VH on CH1 with His6 and Flag tags (Plasmid A), VL on lambda CL (Plasmid E); also called H: KT TRV & L: LP) VH: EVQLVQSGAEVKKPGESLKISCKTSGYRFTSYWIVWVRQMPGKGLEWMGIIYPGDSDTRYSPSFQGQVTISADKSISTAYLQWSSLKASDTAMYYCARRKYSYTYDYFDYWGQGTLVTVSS VL: QTVVTQEPSFSVSPGGTVTLTCGLSSGSVSTSYYPSWYQQTPGQAPRTLIYSTNTRSSGVPDRFSGSILGNKAALTITGAQADDESDYYCLLYMGPGISYVFGTGTKVTVL
1.1e+07

Given the binder Fab VH1-46_IGHD6-6*01_IGHJ1*01 S102A/S103P/S104F/H111F & L6_IGKJ1*01 S28N/S30D/S31H (Fab, V domains shown, Fab made in E. coli: VH on CH1 with His6 and Flag tags (Plasmid A), VL on kappa CL (Plasmid C); also called H: APFF & L: NDH) VH: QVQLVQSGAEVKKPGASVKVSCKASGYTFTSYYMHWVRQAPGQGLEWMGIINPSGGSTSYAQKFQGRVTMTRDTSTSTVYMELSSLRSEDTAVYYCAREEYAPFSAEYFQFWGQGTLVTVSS VL: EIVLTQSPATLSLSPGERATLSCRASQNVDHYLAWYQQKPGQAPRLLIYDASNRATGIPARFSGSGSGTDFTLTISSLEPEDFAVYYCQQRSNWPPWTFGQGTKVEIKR , write its reported kon.
444000
